Test system: RAW264.7
Assay: Upregulation of IL-1beta production in mouse RAW264.7 cells at 50 uM incubated for 24 hrs by ELISA
Assay type: functional, cell-based
The source made the active and inactive calls. The calls are words filed in the database; no cut-off is given here. Bridge positions count the residues as written; N and C are the ends. Square brackets hold non-standard residues; d marks the D form. Peptide text beside a SMILES is read from it. Dab = NCC[C@H](N)C(=O)O; Dap = NC[C@H](N)C(=O)O

>  <compound>
CC[C@H](C)[C@@H]1NC(=O)[C@H](CCCNC(=N)N)NC(=O)[C@H](Cc2ccccc2)NC(=O)[C@H](CCCCN)NC(=O)[C@H](Cc2ccccc2)NC(=O)[C@H](CCCNC(=N)N)NC(=O)[C@@H](N)CSSC[C@@H](C(N)=O)NC(=O)[C@H]([C@@H](C)CC)NC(=O)[C@H](C(C)C)NC1=O (H-CRFKFRIVIC-NH2; disulfide 1-10)

>  <system.under.test>
RAW264.7

>  <Activity>
Active

$$$$
>  <compound>
CC[C@H](C)[C@@H]1NC(=O)[C@H](CCCNC(=N)N)NC(=O)[C@H](Cc2ccccc2)NC(=O)[C@H](CCCCN)NC(=O)[C@H](Cc2ccccc2)NC(=O)[C@H](CCCNC(=N)N)NC(=O)[C@@H](N)CCC(=O)NC[C@@H](C(N)=O)NC(=O)[C@H]([C@@H](C)CC)NC(=O)[C@H](C(C)C)NC1=O (H-ERFKFRIVI[Dap]-NH2; lactam 1-10)

>  <system.under.test>
RAW264.7

>  <Activity>
Active

$$$$
>  <compound>
CC[C@H](C)[C@@H]1NC(=O)[C@H](CCCNC(=N)N)NC(=O)[C@H](Cc2ccccc2)NC(=O)[C@H](CCCCN)NC(=O)[C@H](Cc2ccccc2)NC(=O)[C@H](CCCNC(=N)N)NC(=O)[C@@H](N)CCNC(=O)CC[C@@H](C(N)=O)NC(=O)[C@H]([C@@H](C)CC)NC(=O)[C@H](C(C)C)NC1=O (H-[Dab]RFKFRIVIE-NH2; lactam 1-10)

>  <system.under.test>
RAW264.7

>  <Activity>
Active

$$$$
